Biological target: airway epithelial sodium currents (epithelial Na+ channel, ENaC) (Canis lupus familiaris, UniProt A0A8I3MKE6+A0A8I3Q679+Q95165)
Sequence (A0A8I3Q679 1-649): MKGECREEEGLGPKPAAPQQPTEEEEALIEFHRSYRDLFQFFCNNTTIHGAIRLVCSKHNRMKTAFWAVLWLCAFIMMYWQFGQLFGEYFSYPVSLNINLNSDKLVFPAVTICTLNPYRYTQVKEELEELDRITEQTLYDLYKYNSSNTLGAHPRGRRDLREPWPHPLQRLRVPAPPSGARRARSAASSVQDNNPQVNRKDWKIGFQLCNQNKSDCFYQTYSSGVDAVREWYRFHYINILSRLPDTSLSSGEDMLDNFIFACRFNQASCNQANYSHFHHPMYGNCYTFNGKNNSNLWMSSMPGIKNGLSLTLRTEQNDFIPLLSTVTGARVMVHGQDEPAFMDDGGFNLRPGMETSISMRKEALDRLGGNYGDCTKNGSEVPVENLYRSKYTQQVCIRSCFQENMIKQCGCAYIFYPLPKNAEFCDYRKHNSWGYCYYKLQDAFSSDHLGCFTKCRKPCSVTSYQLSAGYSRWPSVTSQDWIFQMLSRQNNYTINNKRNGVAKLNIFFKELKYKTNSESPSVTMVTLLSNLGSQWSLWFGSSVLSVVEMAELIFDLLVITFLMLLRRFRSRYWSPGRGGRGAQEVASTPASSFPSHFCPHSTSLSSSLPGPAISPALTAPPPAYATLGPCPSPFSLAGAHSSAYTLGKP
Sequence (Q95165 1-641): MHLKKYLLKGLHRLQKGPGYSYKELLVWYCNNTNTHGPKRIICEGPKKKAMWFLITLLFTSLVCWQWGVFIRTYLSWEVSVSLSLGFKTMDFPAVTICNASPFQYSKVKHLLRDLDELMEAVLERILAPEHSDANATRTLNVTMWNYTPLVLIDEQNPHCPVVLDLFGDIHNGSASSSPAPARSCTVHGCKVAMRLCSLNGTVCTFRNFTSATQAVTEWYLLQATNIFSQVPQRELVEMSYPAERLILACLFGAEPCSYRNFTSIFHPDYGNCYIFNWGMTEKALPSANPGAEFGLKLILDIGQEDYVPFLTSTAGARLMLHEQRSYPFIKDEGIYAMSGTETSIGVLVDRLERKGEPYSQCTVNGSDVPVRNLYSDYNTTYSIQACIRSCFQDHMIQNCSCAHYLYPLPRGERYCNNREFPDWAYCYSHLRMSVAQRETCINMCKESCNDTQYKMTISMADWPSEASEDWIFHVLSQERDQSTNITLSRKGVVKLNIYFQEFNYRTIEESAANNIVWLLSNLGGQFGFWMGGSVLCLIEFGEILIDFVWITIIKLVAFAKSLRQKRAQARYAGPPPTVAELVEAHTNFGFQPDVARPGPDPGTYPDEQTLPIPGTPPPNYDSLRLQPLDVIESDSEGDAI
Sequence (A0A8I3MKE6 1-646): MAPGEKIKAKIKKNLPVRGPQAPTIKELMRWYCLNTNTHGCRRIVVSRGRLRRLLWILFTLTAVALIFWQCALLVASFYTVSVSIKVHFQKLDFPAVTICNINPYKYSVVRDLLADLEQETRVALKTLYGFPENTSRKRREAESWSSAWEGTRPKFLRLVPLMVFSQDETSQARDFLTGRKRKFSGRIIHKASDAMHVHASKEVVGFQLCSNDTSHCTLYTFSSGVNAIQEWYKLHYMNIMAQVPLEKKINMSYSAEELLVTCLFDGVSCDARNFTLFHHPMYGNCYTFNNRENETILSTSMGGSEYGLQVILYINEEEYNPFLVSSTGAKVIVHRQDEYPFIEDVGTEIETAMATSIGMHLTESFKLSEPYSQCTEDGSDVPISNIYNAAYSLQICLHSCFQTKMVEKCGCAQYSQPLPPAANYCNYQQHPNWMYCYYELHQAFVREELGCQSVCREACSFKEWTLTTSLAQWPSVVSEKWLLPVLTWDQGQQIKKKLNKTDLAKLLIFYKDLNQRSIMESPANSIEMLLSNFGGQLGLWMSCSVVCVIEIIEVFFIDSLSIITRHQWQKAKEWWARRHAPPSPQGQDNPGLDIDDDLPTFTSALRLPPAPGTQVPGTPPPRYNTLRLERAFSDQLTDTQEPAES
Assay: In vitro measure of sodium channel blocking activity (short circuit current, airway epithelial monolayers in Ussing chambers)
Settings: lumenal drug inhibition of ISC in airway epithelial monolayers, value ± spread, n in same cell
Rule: measured EC50 below 0.01 µM gets true; anything equal to or greater than 0.01 µM gets false.

compound: N=C(NCCCCc1ccc(OCCCc2ncc[nH]2)cc1)NC(=O)c1nc(Cl)c(N)nc1N
classification: false

Prompt: Quick check: does N=C(NCCCCc1ccc(OCC(O)COCC(O)CO)cc1)NC(=O)c1nc(Cl)c(N)nc1N (stereo not shown) have EC50 under 0.01 µM?
Completion: true

Prompt: Bench note: check whether N=C(NCCCCc1ccc(OCC(=O)Nc2ncc[nH]2)cc1)NC(=O)c1nc(Cl)c(N)nc1N shows EC50 below 0.01 µM
Completion: false

Prompt: Dear colleague, could you confirm whether EC50 of CN(C)C(=S)Oc1ccc(CCCCNC(=N)NC(=O)c2nc(Cl)c(N)nc2N)cc1 falls below 0.01 µM? Thanks.
Completion: false

Prompt: Report whether reported EC50 is lower than 0.01 µM (strictly) for N#CCOc1ccc(CCCCNC(=N)NC(=O)c2nc(Cl)c(N)nc2N)cc1
Completion: false

Prompt: Does the reported EC50 of CN(C)C(=O)COc1ccc(CCCCNC(=N)NC(=O)c2nc(Cl)c(N)nc2N)cc1 stay below 0.01 µM?
Completion: false

Prompt: Here's an entry: N=C(NCCCCc1ccc(OCC(=O)NCC(N)=O)cc1)NC(=O)c1nc(Cl)c(N)nc1N . Is its EC50 below 0.01 µM?
Completion: false

Prompt: Record N=C(NCCCCc1ccc(OCCCc2nnn[nH]2)cc1)NC(=O)c1nc(Cl)c(N)nc1N : is its EC50 strictly below 0.01 µM?
Completion: false

Prompt: A record lists N=C(NCCCCc1ccc(OCC(=O)Nc2ccccc2)cc1)NC(=O)c1nc(Cl)c(N)nc1N . Is its EC50 below 0.01 µM?
Completion: false

Prompt: Please check: EC50 for CC(C)[C@H](NS(=O)(=O)c1ccc(CCCCNC(=N)NC(=O)c2nc(Cl)c(N)nc2N)cc1)C(N)=O , strictly under 0.01 µM or not?
Completion: true
